- Assayed target: DRB1*1501 (Homo sapiens, UniProt P01903+P01911)
- Procedure summary: biochemical
- Assay type: binding
No end group written: not given here.
Label 1 when IC50 is strictly below 0.4 µM; at or above that, label -1.

For CWNYIDDNLRNALDG [Peptide 90.0041] , is the recorded IC50 below the cut-off of 0.4 µM?
-1

Report whether reported IC50 is lower than 0.4 µM (strictly) for IAYYYAQLADSNSNA [Peptide 89.0072]
1

Lab note: confirm whether the reported IC50 for this sequence is below 0.4 µM, equality not counting. sequence: VTAIFGVNPTIAEGF [Peptide 89.0023]
-1

Input AKLMSNLLSIPETCM [Peptide 89.0066] ; condition: IC50 strictly below 0.4 µM. Does it hold?
-1

State whether 0.4 µM exceeds IC50 recorded for QMFLGTVKIPPTVQI [Peptide 89.0188] .
1

Does this sequence meet the criterion IC50 < 0.4 µM? FQVIELQMALETLNA [Peptide 90.0025]
-1

Item TAIFGVNPTIAEGFK [Peptide 89.0024] : IC50 beneath 0.4 µM, strictly?
-1

The measurements presented in this section are drawn from patent US9340577B2.
